# experimental.context: basic group
measured.property: pKa
// print number alone

Reference set, count: 2
molecule	pKa
NCC/C(N)=N/O	9.15
COc1cc(S(C)(=O)=O)cc(C(=O)N[C@@H]2C[C@H]3CC[C@@H](C2)N3Cc2ccccc2)c1OC	8.92

Qu. I would be grateful if you could share the reported pKa for CCC(O)CN(CC)CC(C)O (configuration not stated) .
Ans. 9.2

Qu. Tell me the measured pKa of CN[C@H]1C[C@]1(C)NC , please.
Ans. 9.05

Qu. // query pKa value for entry OC1(c2ccco2)CN2CCC1CC2 (configuration not stated)
Ans. 9.06

Qu. # query: pKa of entry CCOc1ccc(/N=C/N(C)C)cc1
Ans. 9.24

Qu. Please give the measured pKa for this molecule: CC(C)(C)SC(=N)c1ccccc1
Ans. 9.24

* * *

# experimental.context: basic group
Each entry below lists one item and its recorded pKa value.
Would you mind answering with just the numeric figure?

Previously resolved entries follow.
item.smiles	pKa
O=C([O-])[C@@H]1O[C@H](Oc2ccc3ncccc3c2)[C@@H](O)[C@H](O)[C@H]1O	5
Nc1ccccc1C(=O)[O-]	4.87

Now take the following molecule into account.
Qu. Please look up its pKa: Nc1c(O)cccc1O
Ans. 5.1

* * *

# experimental.context: basic group
measured.property: pKa

Before answering, review these 5 worked examples.
molecule	pKa
c1coc(CNCCNCc2ccco2)c1	8.61
Oc1ccc2nnccc2c1	3.65
CCCNCCNCCC	10.3
CP(=O)(Cc1ccccc1)c1ccccc1 (stereo not drawn)	-1.82
COCC(C)CN(C)C (stereo not drawn)	9.69

Qu. Given the molecule CON(C)C , what is its reported pKa?
Ans. 3.65

Qu. Suppose we examine the molecule CN(C)/C=N/c1ccccc1 ; what pKa value has been reported?
Ans. 9

Qu. Look at this molecule and give its reported pKa. COc1ccc(-c2ncc(-c3ccc([NH3+])cc3)o2)cc1
Ans. 0.85

Qu. What value of pKa has been recorded for this entry: C[NH2+]CCN(C)CC[NH3+]
Ans. 3.38

Qu. Request the reported pKa associated with C/C(=N/c1ccccc1O)c1ccccc1O
Ans. 5.14

Qu. What pKa value was documented for this molecule, CC(=O)c1ccc(/N=N/c2c(N)n[nH]c2N)cc1 ?
Ans. 3.32

Qu. Name the reported pKa value associated with the molecule CCCN(CC(O)CC)CC(O)CC (stereo not drawn)
Ans. 9

Qu. Please look up its pKa: Cc1ccncn1
Ans. 1.99

Qu. // query pKa value for entry Nc1ccc(I)cc1
Ans. 3.79

Qu. Field request: pKa | item: CCN(CC)CCC(C)=O
Ans. 9.25

Qu. Look up pKa: CCCCCCCCN(CC(O)CC)CC(O)CC (stereo not drawn)
Ans. 7.5

Qu. Name the recorded pKa for O=C([O-])c1nccc2ccccc12 .
Ans. 4.97

Qu. Item CC(C)NCCc1ccc([O-])cc1 has what recorded pKa?
Ans. 10.8

Qu. I have this molecule here, CCCCCCCCCCCCCCCCN , and I need its recorded pKa.
Ans. 10.6

Qu. Give the measured pKa of Cc1cccc(C)c1NC(=O)CN1CCCCC1 .
Ans. 7.6

Qu. Which pKa value belongs to Cc1nc2ccccc2c(NCCC[NH+](C)C)c1[N+](=O)[O-] ?
Ans. 5.35

Qu. pKa for CCC(C)N (stereo not drawn) ?
Ans. 10.6

Qu. Consider the molecule shown here: COc1ccc(S(=O)(=O)NCCCN2CCOCC2)c(OC)c1OC What is its recorded pKa?
Ans. 6.76

* * *

Measured pKa by item
# experimental.context: basic group
Just the number, please, no unit attached.

Worked examples, 5 compounds total:
compound	assay.value
Brc1ccnc2c1ccc1cccnc12	4.03
CCCc1ncc[nH]1	8.02
OC[C@@H]1O[C@H](n2cnc3ccccc32)[C@@H](O)[C@H](O)[C@H]1O	4.01
CN1CCN(C(c2ccccc2)c2ccccc2)CC1	8.05
Nn1cnnc1	2.53

Qu. Can you share its pKa? I mean this compound: C=CCNc1ccccc1
Ans. 4.17

Qu. # lookup: pKa of CC[NH+](CC)CCCC(C)Nc1cc(OC)cc2cccnc12 (configuration not stated)
Ans. 3.63

Qu. Which pKa reading was recorded for the compound OC1C=CC=CC=C1 ?
Ans. -7

Qu. Could you tell me which pKa is on file for CCCCCCCCCCCCCCCNCCCCCCCCCCCCCCC ?
Ans. 11

* * *

# experimental.context: basic group
Mark MET for reported pKa of 5 or greater; mark NOT MET for anything smaller.

compound	cat
CCN(CC)CCNc1cc(C)nc(Nc2ccc(Cl)cc2)n1	MET
CC(O)CNCC(C)O (centres undefined)	MET
Nc1cccc(S(N)(=O)=O)c1	NOT MET
Cc1nc2ccccc2nc1[O-]	MET
O=C(O)c1ccc[nH]1	NOT MET

Qu. Reported pKa reaches at least 5 for NC(=O)[C@H](N)[C@H](O)C(=O)O ?
Ans. MET

Qu. Evaluate CCCc1c(O)n[nH]c1C : pKa at minimum 5?
Ans. NOT MET

Qu. Exam item: decide whether the reported pKa for CCOC(=O)CC(c1ccccc1)N(C)C (centres undefined) is at least 5.
Ans. MET

Qu. Determine whether this compound has pKa no lower than 5: C[N+](C)(C)CCOC(=O)/C=C/c1c[nH]cn1
Ans. NOT MET

Qu. Check this compound for pKa at or above 5: Cc1cncc[nH+]1
Ans. NOT MET

* * *

# experimental.context: basic group
Values of pKa greater than or equal to 5 map to 1; values below map to 0.

item.smiles	cat
CCCc1ccnc2c1ccc1cccnc12	1
CNC(=O)c1ccncc1	0
CNNC1CCN(C(C)C)CC1	1
Cc1ncncc1N	0
O=C1CCC[C@H]2[C@H]3C[C@@H](CN12)[C@H]1CCCCN1C3	1

Qu. Reported pKa at or above 5? O[C@H]1[C@H](O)[C@@H](n2cnc3ccccc32)OC[C@@H]1O
Ans. 0

Qu. Please indicate if the recorded pKa for O=C1N[C@@H](Cc2cnc[nH]2)C(=O)N[C@H]1Cc1cnc[nH]1 meets or exceeds 5.
Ans. 1

Qu. Please check the record CC(=O)/C(CN1CCOCC1)=N\O and state if its pKa is at or above 5.
Ans. 1

Qu. Textbook exercise: given the entry Cn1c(CO)nc2ccccc21 , state whether its pKa is greater than or equal to 5.
Ans. 0

Qu. Evaluate Nc1nc([S-])c2ncn([C@H]3O[C@@H](CO)[C@H](O)[C@@H]3O)c2n1 : pKa at minimum 5?
Ans. 1

Qu. Evaluate [S-]CCNCc1ccccc1 : pKa at minimum 5?
Ans. 1

Qu. Answer whether pKa of CNCC#N is greater than or equal to 5.
Ans. 1

* * *

Reported pKa values for the following compounds.
# experimental.context: acidic group

compound	assay.value
CCn1cccc(O)c1=O	8.99
C[NH+](C)Cc1cccc(O)c1	8.88
Oc1ccc2cccc(I)c2c1	8.98
CC(=O)N[C@H]1CC(=O)NC1=O	8.85

Qu. Need pKa, item NC(=O)C1CCCCN1 (stereo not given)
Ans. 8.9

* * *

# experimental.context: basic group
Listing: pKa of selected molecules
Give the value as a plain number.

Solved cases below.
molecule	assay.value
COc1ccc(-c2cnc(-c3ccc(OC)cc3)o2)cc1	1.41
CC1(C)S[C@H]2[C@@H](NC(=O)Cc3ccc(N)cc3)C(=O)N2[C@@H]1C(=O)[O-]	4.6
NCCCCC#CC#CCCC(=O)[O-]	10.5
CCCCCCCCCCCCN(CC(O)CC)CC(O)CC (configuration not stated)	5.6
COc1ccc(C(=N)c2ccccc2)c(OC)c1	8.3
O=C(Nc1ccccn1)c1ccccc1	3.33

Qu. I'd like to know its pKa. The molecule in question is CC1(C)CN1
Ans. 5.37

* * *

# experimental.context: basic group
param class (str): category from pKa; see ranges low value = under 5, medium value = from 5 up to 8, high value = 8 and over

For orientation, consider the following solved cases.
molecule	cat
CN(C)CCCN=C(c1ccccc1)c1ccccc1	high value
CC(C)[NH2+]CC(O)c1cccc(N)c1 (stereo not drawn)	low value

Qu. Into which bin does this molecule go? Cc1ccc2nc3ccc(C)cc3cc2c1
Ans. low value

Qu. Quick check: band for CCCCNc1ccnc2cccc([N+](=O)[O-])c12
Ans. medium value

Qu. Please let me know in which category the item CC(C)[NH2+]CCN belongs.
Ans. medium value

Qu. GET /class?item= CC1CN2CCC1CC2 (stereo not drawn)
Ans. high value

Qu. Looking at COc1ccc(N)cc1 , which class would you pick?
Ans. medium value

Qu. Please indicate the class for Brc1ccc2c(c1)CCN2 based on its pKa.
Ans. low value

Qu. Form: Item = c1ccc(C(CCN2CCOCC2)c2ccccc2)cc1 ; Class = ?
Ans. medium value
